- Tested on: CAKI-1 renal
- TEST DETAILS: NCI-60 one-dose screen, 48 h (100 = growth as untreated, 0 = no growth, -100 = all killed)
- MEASUREMENT CONTEXT: 10 µM
About 83,000 compounds went through this panel and 20% of them were active in at least one assay; those are over-represented in the sample as a whole.
RECORDED ENDPOINT: growth (%)
Your answer should be a plain number; it is taken to be in %.

compound_structure=Cc1ccc([P+](Cc2ccc([N+](=O)[O-])cc2)(c2ccc(C)cc2)c2ccc(C)cc2)cc1 measured_value=94.7
compound_structure=COc1cc(C)c2sc3ccccc3c(=O)c2c1NCCN(C)C measured_value=39.7
compound_structure=CCCn1c(=O)c2c(nc(-c3cccc(OCCCCl)c3)n2C)n(CCC)c1=O measured_value=43.7
compound_structure=CCCCCc1cc[n+](CC(=O)c2ccc(Cl)cc2)cc1 measured_value=92.5

Consider the additional compound presented here.
Entry CCc1nn2c(-c3cc(OC)c(OC)c(OC)c3)c(-c3cc(OC)c(OC)c(OC)c3)nc2s1 has what growth?
71.4

====

Parameter: growth. Scope: all listed entries.
- Test system: HCT-116 colon
- TEST DETAILS: NCI-60 one-dose screen, 48 h (100 = growth as untreated, 0 = no growth, -100 = all killed)
- MEASUREMENT CONTEXT: 10 µM
This is part of a sample that, as a whole, favours compounds with a hit. Of some 83,000 tested, about 20% had one in any assay.
Please reply with the bare figure in % and do not write the unit itself.

What value of measured growth is listed for COc1ccc(C2=Cc3ccc(OC(C)=O)cc3OC2)cc1 ?
104

====

- System: NCI-H23 lung
- TEST DETAILS: NCI-60 one-dose screen, 48 h
- MEASUREMENT CONTEXT: 10 µM
Compounds without any hit were thinned out: in the full panel of roughly 83,000, 20% have a hit. Active and inactive are the calls of the source. The calls were made as follows: active = growth percent below 10; inactive = the rest.
Entry note: the call must match one of active, inactive

Examples with answers:
compound="CC(CNC(Cc1ccccc1)c1ccccc1)NC(Cc1ccccc1)c1ccccc1 (configuration not stated)" label=inactive
compound=CC(C)(C)CC(C)(C)c1ccc(O)c(Cc2ccc(Cl)cc2Cl)c1 label=active
compound=O=C(Nc1cccc(C(F)(F)F)c1)C(Cl)Cl label=inactive
compound="CCCCOCC(=O)NC(NP(=O)(N(C)C)N(C)C)C(Cl)(Cl)Cl (configuration not stated)" label=inactive

What was the test verdict on COc1ccc2c(=O)cc(C(Cl)(Cl)Cl)oc2c1 ?
active

// outcome(item) with item = CNC(=O)c1cc(Oc2ccc(NC(=O)Nc3ccc(Cl)c(OC(C)C)c3)c(F)c2)ccn1
inactive

Each compound tested received a call. Report the one for COc1ccc(-c2cn[nH]c2-c2cc(OC)c(OC)c(OC)c2)cc1 .
inactive

====

- System: MALME-3M melanoma
- TEST DETAILS: NCI-60 one-dose screen, 48 h
- MEASUREMENT CONTEXT: 10 µM
This is part of a sample that, as a whole, favours compounds with a hit. Of some 83,000 tested, about 20% had one in any assay. The source made the active and inactive calls. Rule for the calls: active = growth percent below 10; inactive = the rest.
Reply using exactly one outcome from active, inactive

Answered cases to consult:
compound_structure=COc1cc(-c2cc(-c3ccc(C)cc3)nc3nc(N)[nH]c(=O)c23)ccc1Oc1ccnc2cc(Cl)ccc12 label=inactive
compound_structure=Cc1cnc(C=O)c2cccc([N+](=O)[O-])c12 label=inactive
compound_structure=O=C(COc1ccc(Cl)cc1Cl)Oc1coc(CSc2nc3ccccc3s2)cc1=O label=inactive
compound_structure=CC(=O)O[C@H]1CC[C@@]2(C)[C@@H](CC[C@@H]3[C@@H]2CC[C@]2(C)C=C(C=O)C[C@@H]32)C1 label=inactive
compound_structure=CCc1ccc(Nc2cc(C)nc3nc(C)nn23)cc1 label=active
compound_structure=Cc1ccccc1C1=N[C@@H](Cc2ccccc2)C(=O)c2c(nc3ccccn23)N1 label=inactive
compound_structure=COc1cccc(-c2nnc(COc3ccc(-c4nc5ccccc5[nH]4)cc3OC)o2)c1 label=inactive
compound_structure=C[C@@H]1N=C(c2ccc(Br)cc2)Nc2nc3ccccn3c2C1=O label=inactive

Now let's try a different one.
Assay result, entry COc1cccc(C(=O)NNc2nc(N3CCN(C4CCCCC4)CC3)nc(N3CCN(C(c4ccccc4)c4ccccc4)CC3)n2)c1 — outcome?
active

====

- System: MDA-MB-435 melanoma
- TEST DETAILS: NCI-60 one-dose screen, 48 h (100 = growth as untreated, 0 = no growth, -100 = all killed)
- MEASUREMENT CONTEXT: 10 µM
- Procedure: Growth inhibition of the MDA-MB-435 human Melanoma tumor cell line is measured as a screen for anti-cancer activity. Cells are grown in 96 well plates and exposed to the test compound for 48 hours. Compounds are tested at a single concentration, which is 10^-5 M for most compounds. The reported endpoint is percent growth (GI% or GIPRCNT), where numbers from 0 - 100% represent growth inhibition, and numbers from -100% - 0 represent cell death. […]
Compounds without any hit were thinned out: in the full panel of roughly 83,000, 20% have a hit.
Where growth equals or exceeds 60%, the correct label is True; where it does not, the label is False.

Does the reported growth for COc1ccc2nc(NC(=O)Nc3c(F)cccc3F)sc2c1 fall at or above the 60% mark?
True

growth >= 60% for CCCCOCC(=O)NC(NP(=O)(N(C)C)N(C)C)C(Cl)(Cl)Cl (stereo unspecified) ?
True

Given COC(=O)[C@]12CC[C@@H](C)[C@H](C)[C@@H]1C1=CC[C@@H]3[C@@]4(C)CC(=O)[C@H](O)[C@@](C)(CO)[C@@H]4C(=O)C[C@@]3(C)[C@]1(C)CC2 , state whether its growth is at least 60%.
False

Is it the case that N#C/C(=C\N1C(=O)/C(=C/c2cccc([N+](=O)[O-])c2)SC1=S)c1nc2ccccc2s1 has growth reaching or exceeding 60%?
True

Check this compound for growth at or above 60%: CC(CNC(Cc1ccccc1)c1ccccc1)NC(Cc1ccccc1)c1ccccc1 (stereo unspecified)
True

Say whether O=C(O)c1ccccc1C(=O)c1cccc2c(F)cccc12 shows growth of 60% or more.
True

Dear colleague, could you confirm whether O=C(/C=C/c1nnc2n(Cc3ccccc3)c(=O)c3c4c(sc3n12)CCCC4)c1ccccc1 has growth at or above 60%?
True

Determine whether this compound has growth no lower than 60%: N=C(N)c1ccc(-c2ccc(-c3ccccc3)s2)s1
False

====

- Test system: ACHN renal
- TEST DETAILS: NCI-60 one-dose screen, 48 h (100 = growth as untreated, 0 = no growth, -100 = all killed)
- MEASUREMENT CONTEXT: 10 µM
About 83,000 compounds went through this panel and 20% of them were active in at least one assay; those are over-represented in the sample as a whole.
RECORDED ENDPOINT: growth (%)
Write the value in % as a bare number.

compound=COc1ccc(-c2nnc(COc3ccc(NC(=O)Nc4cccc(C(F)(F)F)c4)cc3F)o2)cc1 measured_value=27.3
compound=C=CCOc1ccc2c(c1)CC[C@@H]1[C@@H]2CC[C@]2(C)C(=O)/C(=N/O)C[C@@H]12 measured_value=30.4
compound=CCCCCCCOc1cccc(/C=C2/C(=O)N=C3SCCCN32)c1 measured_value=79.2

// lookup growth for Cc1cc(C#Cc2ccccc2)ccc1-n1c(/C=C/c2cc(O)ccc2O)nc2ccccc2c1=O
8.83

Recorded growth for CC(=O)Oc1c(C)c(C)c2c(c1C)CCC(C)(CC(=O)OCCCCCCCCCCC[P+](c1ccccc1)(c1ccccc1)c1ccccc1)O2 (stereo not drawn) , please?
-95.4

Suppose we examine the compound COc1cc(CSc2nc3ccc(C)cc3c(=O)n2Cc2ccccc2)cc(OC)c1OC ; what growth value has been reported?
46.7

What does the record list as growth for COc1ccc(Nc2ccnc(N3CCN(c4ccnc5cc(Cl)ccc45)CC3)n2)cc1 ?
11.2

====

- Test system: UO-31 renal
- TEST DETAILS: NCI-60 one-dose screen, 48 h (100 = growth as untreated, 0 = no growth, -100 = all killed)
- MEASUREMENT CONTEXT: 10 µM
The panel holds about 83,000 compounds, 20% with a hit somewhere; the sample as a whole holds those more often.
RECORDED ENDPOINT: growth (%)
Your answer should be a plain number; it is taken to be in %.

molecule=O=S(=O)(NCCO)c1ccc(OCCOc2ccc(S(=O)(=O)NCCO)cc2)cc1 test_system="UO-31 renal" recorded_endpoint=growth measured_value=81.9
molecule=CS(=O)(=O)Nc1ccc(Nc2c3ccccc3nc3cc(Cl)ccc23)cc1 test_system="UO-31 renal" recorded_endpoint=growth measured_value=0.84

Provide value of growth for this record tested with UO-31 renal: N#Cc1ccc(-n2cnc(NC(=O)[C@H]3CCN(C#N)C3)c2)cc1
18.6
